Cited source for all entries: the EternaBench riboswitch data

Test system: MS2 coat protein
measurement-protocol: apparent Kd, MS2 coat protein; higher = weaker binding; RNA-MaP array
run-conditions: designed as: OFF switch for flavin mononucleotide; no ligand
measure-name: apparent Kd (nM)
Your answer is read as nM, so omit the unit and give the number.

# annotated cases, reported apparent Kd shown
{"sequence": "AGAGAGUCAGGAUAUAAAUAUAAAGAGAUAAAGCAAACAAUUUAGAAGGGACAUGAGGAUCACCCAUGUGAUAA", "apparent Kd / nM": 13.6}
{"sequence": "UCUCAGUGAGGAUAUCGAACAGACCUUUGUGUGCUAAUUUUCGAGAAGGCACAUGAGGAUCACCCAUGUGACUC", "apparent Kd / nM": 54.6}
{"sequence": "AAUAUAAACGUCAGGAUAUUCACGAUAAACAAAUAGAAGAAGGGACAUGAGGAUCACCCAUGUAAACAUGAGUA", "apparent Kd / nM": 11.6}

INPUT: Look up apparent Kd for this sequence: "GUAUUGUAAGGAUAUAGUAGGCCAGUACGAAGGCUUGAGCACUAGAAGGUACAUGAGGAUCACCCAUGUGGUGG"
OUTPUT: 401

INPUT: Also "AUGAUAUGGGACAUGAGGAUCACCCAUGUCGGCUUUGUCACGCAGGAUAUUGCGACUCAAAUCGUCAAGAAGGGCGGAGACUCC" , if possible.
OUTPUT: 21.5

INPUT: Entry "GAUGGUGUCAAGGAUAUUCCUAGCGGCUCGUUCGAAGAAGGUGAUACAUGAGGAUCACCCAUGUCCCUCCAUUU" please
OUTPUT: 18.2

INPUT: Also need "AUAAAAGACAUGAGGAUCACCCAUGUAGCUCCUCGGUCUUCGAGAAGGUUCUUGCCCAGAGCGUGAAAGGAUAUCGCAUAUAUC" , thanks.
OUTPUT: 353

INPUT: Do the same for "UAUAGUUAAAAGGAUAUCGAAAACAAGCGUAAACGAGAAGGUUUAACAUGAGGAUCACCCAUGUAAGGAGAUGG" please
OUTPUT: 58.4

INPUT: What do you have for "GUGAGACAUGAGGAUCACCCAUGUUAGGAUAUUAAACUGGUUUAGUCUGUGACCGACGUAAGAAGGAACUUGAU" ?
OUTPUT: 13.1
